Tested on: AURKB
Details: concentration: 1 μM, replicates: in singlicate; n = 1;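 note: KINOMEscan kinase panel screen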
class 1 if %Inh is below 4%. class 0 if not; exact matches included in class 0.

Req: In plain terms, does COc1ccc(Nc2nccc(N3CCC(NC(=O)Nc4ccc5c(c4)OCO5)C3)n2)cc1 (stereo not shown) come in under 4% for %Inh?
Resp: class 0

Req: In plain terms, does CN1c2ccc(-c3ccc(C(=O)NCCO)cc3)cc2-c2[nH]ncc2S1(=O)=O come in under 4% for %Inh?
Resp: class 0

Req: In plain terms, does CCc1nc(-c2cccc(N(C)S(=O)(=O)c3ccccc3)c2)c(-c2ccnc(Nc3ccc(N4CCN(C(C)=O)CC4)nc3)n2)s1 come in under 4% for %Inh?
Resp: class 0

Req: In plain terms, does COc1cc2c(Nc3cccc(NC(=O)c4ccccc4)c3)ncnc2cc1OCCCN1CCOCC1 come in under 4% for %Inh?
Resp: class 0

Req: In plain terms, does CNc1nccc(-c2c(-c3ccc(F)cc3)ncn2CCCN2CCOCC2)n1 come in under 4% for %Inh?
Resp: class 0

Req: In plain terms, does O=C(CCO)NCCn1ccc2ncnc(Nc3ccc(Oc4cccc(C(F)(F)F)c4)c(Cl)c3)c21 come in under 4% for %Inh?
Resp: class 1

Req: In plain terms, does O=C(Nc1ccccc1F)NC1CCN(c2ccnc(Nc3ccc(F)cc3)n2)C1 (stereo not shown) come in under 4% for %Inh?
Resp: class 0

Req: In plain terms, does Cl.Cn1ccc(-c2cccc(Nc3ccnc4cc(-c5nccs5)ccc34)c2)n1 come in under 4% for %Inh?
Resp: class 0

Req: In plain terms, does Cl.O=S(=O)(c1cccc(F)c1)c1ccc(Nc2ncnc3cc(Br)sc23)cc1Cl come in under 4% for %Inh?
Resp: class 1

Req: In plain terms, does O=C(Nc1n[nH]c2nc(-c3ccco3)c(Br)cc12)c1ccc(CN2CCCC2)cc1.O=C(O)[C@H](O)[C@@H](O)C(=O)O come in under 4% for %Inh?
Resp: class 1

Req: In plain terms, does Fc1ccc(-c2ncn(CCCNCc3ccccc3)c2-c2ccncc2)cc1 come in under 4% for %Inh?
Resp: class 0

Req: In plain terms, does CCC(CC)(CC)n1cnc2c(N)ncnc21 come in under 4% for %Inh?
Resp: class 0

Req: In plain terms, does COC(=O)c1cccc(NC(=O)NCCNc2ccnc(Nc3ccc(F)cc3)n2)c1 come in under 4% for %Inh?
Resp: class 1

Req: In plain terms, does FC(F)(F)c1cc(Nc2nccc(-c3c(-c4ccc(Cl)cc4)nn4ncccc34)n2)ccc1Cl come in under 4% for %Inh?
Resp: class 1

Req: In plain terms, does Cc1ccc(O)cc1Nc1cc(C(F)(F)F)nc2ccc(-c3ccncc3)cc12 come in under 4% for %Inh?
Resp: class 1

Req: In plain terms, does CSc1ccc(NC2=C(c3ccccc3Cl)C(=O)NC2=O)cc1 come in under 4% for %Inh?
Resp: class 1

Req: In plain terms, does Cn1ccc2ncnc(Oc3ccc(NC(=O)Nc4cccnc4)c(Cl)c3)c21 come in under 4% for %Inh?
Resp: class 0

Req: In plain terms, does O=C(NCCCN1CCCC1=O)c1cnc(NCc2cc(Cl)ccc2Cl)nc1NC1CCNCC1 come in under 4% for %Inh?
Resp: class 1

Req: In plain terms, does C[C@@H]1CCN(C(=O)CO)C[C@@H]1N(C)c1ncnc2[nH]ccc12 come in under 4% for %Inh?
Resp: class 1

Req: In plain terms, does Clc1cccc(-c2nc(Nc3ccncc3)c3ccccc3n2)c1 come in under 4% for %Inh?
Resp: class 0

Req: In plain terms, does COc1cc2ncnc(Nc3ccc(OCc4ccccc4Br)c(Cl)c3)c2cc1OC.Cl come in under 4% for %Inh?
Resp: class 0

Req: In plain terms, does Cn1ccc2ncnc(Nc3ccc(Oc4cccc(Cl)c4)c(Cl)c3)c21 come in under 4% for %Inh?
Resp: class 0

Req: In plain terms, does Clc1ccc(-c2cc(-c3c[nH]nc3-c3ccccn3)ccn2)cc1 come in under 4% for %Inh?
Resp: class 0

Req: In plain terms, does FC(F)(F)c1ccc(-c2cc(-c3c[nH]nc3-c3ccccn3)ccn2)cc1 come in under 4% for %Inh?
Resp: class 0

Req: In plain terms, does Fc1cccc(COc2ccc(Nc3ncnc4nn5ccccc5c34)cc2Cl)c1 come in under 4% for %Inh?
Resp: class 1

Req: In plain terms, does CSc1nn2c(=O)cc(N3CCOCC3)nc2n1Cc1cccc(Cl)c1Cl come in under 4% for %Inh?
Resp: class 1

Req: In plain terms, does O=C(c1ccc(-c2cc(-c3c[nH]nc3-c3ccccn3)ccn2)cc1)N1CCCC1 come in under 4% for %Inh?
Resp: class 0

Req: In plain terms, does NC(=O)c1sc(-n2cnc3ccccc32)cc1OCc1ccccc1F come in under 4% for %Inh?
Resp: class 1

Req: In plain terms, does Nc1nc(-c2ccc3c(N)n[nH]c3c2)cc(N2CCCCC2)n1 come in under 4% for %Inh?
Resp: class 0

Req: In plain terms, does Cl.Cl.c1ccc(-c2cc3ccncc3cc2OC2CCNCC2)cc1 come in under 4% for %Inh?
Resp: class 0

---

System: IGF1R
Conditions: concentration: 1 μM, replicates: in singlicate; n = 1
Readout kind: %Inh (%)
Quick reminder: number only, in %, skip the unit.

Entry FC(F)(F)c1cc(Nc2nccc(-c3c(-c4ccc(Cl)cc4)nn4ncccc34)n2)ccc1Cl ; assay system IGF1R; %Inh recorded at 0

Entry O=C(CCO)NCCn1ccc2ncnc(Nc3ccc(Oc4cccc(C(F)(F)F)c4)c(Cl)c3)c21 ; assay system IGF1R; %Inh recorded at 0

Entry Cl.O=S(=O)(c1cccc(F)c1)c1ccc(Nc2ncnc3cc(Br)sc23)cc1Cl ; assay system IGF1R; %Inh recorded at 0

Entry Clc1ccc(-c2cc(-c3c[nH]nc3-c3ccccn3)ccn2)cc1 ; assay system IGF1R; %Inh recorded at 4

Entry COC(=O)c1c(-c2ccccc2)c2cc(Cl)ccc2c(=O)n1Cc1ccc(S(C)(=O)=O)cc1 ; assay system IGF1R; %Inh recorded at 0

Entry Fc1cccc(COc2ccc(Nc3ncnc4cc[nH]c34)cc2Cl)c1 ; assay system IGF1R; %Inh recorded at 5

Entry Cl.Cl.c1ccc(-c2cc3ccncc3cc2OC2CCNCC2)cc1 ; assay system IGF1R; %Inh recorded at 0

Entry Nc1n[nH]c2nnc(-c3ccccc3)cc12 ; assay system IGF1R; %Inh recorded at 0

Entry O=C(c1ccc(-c2cc(-c3c[nH]nc3-c3ccccn3)ccn2)cc1)N1CCCC1 ; assay system IGF1R; %Inh recorded at 0

Entry Cn1ccc2ncnc(Nc3ccc(Oc4cccc(Cl)c4)c(Cl)c3)c21 ; assay system IGF1R; %Inh recorded at 0

Entry CCn1c(-c2ccncc2)nc2cnccc21 ; assay system IGF1R; %Inh recorded at 0

Entry O=C(Nc1ccccc1)Nc1ccc(Oc2ccc3nccn3n2)cc1 ; assay system IGF1R; %Inh recorded at 0

Entry Cl.Cn1ccc(-c2cccc(Nc3ccnc4cc(-c5nccs5)ccc34)c2)n1 ; assay system IGF1R; %Inh recorded at 21

Entry N#Cc1ccc(Oc2ccc(Nc3ncnc4cc[nH]c34)cc2Cl)cc1 ; assay system IGF1R; %Inh recorded at 0

Entry Fc1cccc(COc2ccc(Nc3ncnc4sc(-c5ccc[nH]5)cc34)cc2Cl)c1 ; assay system IGF1R; %Inh recorded at 0

Entry Cc1ccc(C)c(NC(=O)NCCNc2ccnc(Nc3ccc(F)cc3)n2)c1 ; assay system IGF1R; %Inh recorded at 0

Entry CC(C)(C)OC(=O)NC1CCCN(c2cc(-c3ccc4c(N)n[nH]c4c3)nc(N)n2)C1 (stereo not drawn) ; assay system IGF1R; %Inh recorded at 0

Entry O=c1cc(N2CCOCC2)nc2n(Cc3cccc(Cl)c3)ccn12 ; assay system IGF1R; %Inh recorded at 1

Entry CSc1ccc(NC2=C(c3ccccc3Cl)C(=O)NC2=O)cc1 ; assay system IGF1R; %Inh recorded at 6

Entry COc1ccc(Nc2nccc(N3CCC(NC(=O)Nc4ccc5c(c4)OCO5)C3)n2)cc1 (stereo not drawn) ; assay system IGF1R; %Inh recorded at 0

Entry Cl.Fc1ccccc1COc1ccc(Nc2ncnc3ccc(-c4nnc(C(F)(F)F)o4)cc23)cc1Cl ; assay system IGF1R; %Inh recorded at 11

Entry CS(=O)(=O)CCNCc1ccc(-c2ccc3ncnc(Nc4ccc(OCc5ccccc5)c(Cl)c4)c3c2)o1.Cl ; assay system IGF1R; %Inh recorded at 13

Entry CSc1nn2c(=O)cc(N3CCOCC3)nc2n1Cc1cccc(Cl)c1Cl ; assay system IGF1R; %Inh recorded at 0

Entry COc1cc2ncnc(Nc3ccc(OCc4ccccc4Br)c(Cl)c3)c2cc1OC.Cl ; assay system IGF1R; %Inh recorded at 0

Entry Cn1ccc2ncnc(Oc3ccc(NC(=O)Nc4cccnc4)c(Cl)c3)c21 ; assay system IGF1R; %Inh recorded at 16

Entry Cl.c1ccc(Cn2ncc3cc(Nc4ncnc5ccccc45)ccc32)cc1 ; assay system IGF1R; %Inh recorded at 0

Entry Cl.c1ccc(Cn2ccc3cc(Nc4ncnc5ccccc45)ccc32)cc1 ; assay system IGF1R; %Inh recorded at 0
